- target_desc: PCSK9 (Homo sapiens (Human), UniProt Q8NBP7)
- Sequence (Q8NBP7 153-692): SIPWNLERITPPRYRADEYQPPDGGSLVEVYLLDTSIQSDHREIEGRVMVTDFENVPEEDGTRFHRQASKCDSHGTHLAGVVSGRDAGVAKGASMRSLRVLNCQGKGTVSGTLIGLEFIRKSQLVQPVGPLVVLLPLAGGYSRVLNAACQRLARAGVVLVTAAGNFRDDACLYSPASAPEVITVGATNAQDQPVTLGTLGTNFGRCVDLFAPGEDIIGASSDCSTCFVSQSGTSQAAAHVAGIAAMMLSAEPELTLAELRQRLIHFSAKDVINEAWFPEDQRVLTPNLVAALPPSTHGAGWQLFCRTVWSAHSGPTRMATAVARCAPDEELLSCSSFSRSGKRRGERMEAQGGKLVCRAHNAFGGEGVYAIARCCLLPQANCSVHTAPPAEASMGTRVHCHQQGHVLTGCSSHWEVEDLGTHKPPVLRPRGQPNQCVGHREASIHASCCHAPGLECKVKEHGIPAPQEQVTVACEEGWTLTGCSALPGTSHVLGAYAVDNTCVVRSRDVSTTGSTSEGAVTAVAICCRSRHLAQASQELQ
- experimental_details: PCSK9 Alexa FRET Standard assay (displacement of AlexaFluor647 tagged cyclic peptide Reagent A)
- Format: binding
- condition_notes: PCSK9 Alexa FRET Standard assay, 0.5 nM PCSK9, 20 nM AF cyclic peptide Reagent A; read-out: IC50
Starred links: 1 amine or outer side, 2 acyl side, 3 side chain; linkers in the order of their positions; H or OH if unused. Positions of bridges follow the written chain, without caps; N, C: chain ends. Non-standard residues stand in square brackets, D forms with d. Residues, ends and D or L forms follow the SMILES beside them. ξ: configuration not given here. NHCH2C6H4(p)CH2CH2NH = c1cc(CN[*:1])ccc1CCN[*:2]; Trp(5-F) = N[C@@H](Cc1c[nH]c2ccc(F)cc12)C(=O)O; X3 = O=C(CCSCc1cc(F)cc(CSCCN[*:1])c1)[*:2]; Dip = N[C@H](C(=O)O)C(c1ccccc1)c1ccccc1; X4 = O=C(CCSCc1cccc(CSCCN[*:1])c1)[*:2]; cisHyp = O=C(O)[C@@H]1C[C@H](O)CN1; X41 = O=C(Cc1ccc(N[*:1])cc1)[*:2]; αMeP = C[C@@]1(C(=O)O)CCCN1; ξD = NC(CC(=O)O)C(=O)O

compound	IC50
C[C@H]1NC(=O)[C@H](CCCCN)NC(=O)CCSCc2cccc(c2)CSCCNC(=O)[C@]2(C)CCCN2C(=O)[C@H](C(c2ccccc2)c2ccccc2)NC(=O)[C@H](Cc2cnc[nH]2)NC(=O)[C@H](CC(=O)O)NC(=O)[C@H](Cc2c[nH]c3ccc(F)cc23)NC(=O)[C@H](Cc2c[nH]c3ccc(F)cc23)NC1=O [Compound 406] (cyclo(DH[Dip][αMeP][X4]K[dA][Trp(5-F)][Trp(5-F)]))	100 to 1000 nM
COc1ccc(C[C@@H]2NC(=O)[C@@H]3CCCCCCCO[C@H]4C[C@@H](C(=O)N3)N(C4)C(=O)[C@H](Cc3c[nH]c4ccc(F)cc34)NC(=O)[C@H](Cc3c[nH]c4ccc(F)cc34)NC(=O)[C@@H](C)NC(=O)[C@H](CCCCN)NC(=O)CCSCc3cccc(c3)CSC[C@@H](C(N)=O)NC(=O)[C@]3(C)CCCN3C2=O)cc1	0.11 to 100 nM
COc1ccc(C[C@@H]2NC(=O)[C@H](Cc3cnc[nH]3)NC(=O)[C@H](CC(=O)O)NC(=O)[C@H](Cc3c[nH]c4ccc(F)cc34)NC(=O)[C@H](Cc3c[nH]c4ccc(F)cc34)NC(=O)[C@@H](C)NC(=O)[C@H](CCCCN)NC(=O)[C@@H](NC(C)=O)CCC(=O)NCc3ccc(cc3)CCNC(=O)[C@]3(C)CCCN3C2=O)cc1 [Compound 421] (Ac-EK[dA][Trp(5-F)][Trp(5-F)]DHY(Me)[αMeP]; linker 1-C via NHCH2C6H4(p)CH2CH2NH)	100 to 1000 nM
COc1ccc(C[C@@H]2NC(=O)[C@@H]([C@H](C)O)NC(=O)[C@@H]3C[C@H](O)CN3C(=O)[C@H](Cc3c[nH]c4ccc(F)cc34)NC(=O)[C@H](Cc3c[nH]c4ccc(F)cc34)NC(=O)[C@@H](C)NC(=O)[C@H](CCCCN)NC(=O)CCSCc3cc(F)cc(c3)CSCCNC(=O)[C@]3(C)CCCN3C2=O)cc1 [Compound 086] (cyclo(K[dA][Trp(5-F)][Trp(5-F)][cisHyp][dT]Y(Me)[αMeP][X3]))	21000 to 50000 nM
COc1ccc(C[C@@H]2NC(=O)[C@H](Cc3cnc[nH]3)NC(=O)[C@H](CC(=O)O)NC(=O)[C@H](Cc3c[nH]c4ccc(F)cc34)NC(=O)[C@H](Cc3c[nH]c4ccc(F)cc34)NC(=O)[C@@H](C)NC(=O)Cc3ccc(cc3)NC(=O)CC(C(=O)O)NC(=O)[C@]3(C)CCCN3C2=O)cc1 (some centres unmarked) [Compound 402] ([X41][dA][Trp(5-F)][Trp(5-F)]DHY(Me)[αMeP][ξD]-OH; lactam N-9)	1000 to 12100 nM
